Numbers sourced from patent US9694016B2.

- ASSAY TARGET: b-Raf (V600E) (Homo sapiens (Human), UniProt P15056, V600E)
- Sequence (P15056 whole entry V600E): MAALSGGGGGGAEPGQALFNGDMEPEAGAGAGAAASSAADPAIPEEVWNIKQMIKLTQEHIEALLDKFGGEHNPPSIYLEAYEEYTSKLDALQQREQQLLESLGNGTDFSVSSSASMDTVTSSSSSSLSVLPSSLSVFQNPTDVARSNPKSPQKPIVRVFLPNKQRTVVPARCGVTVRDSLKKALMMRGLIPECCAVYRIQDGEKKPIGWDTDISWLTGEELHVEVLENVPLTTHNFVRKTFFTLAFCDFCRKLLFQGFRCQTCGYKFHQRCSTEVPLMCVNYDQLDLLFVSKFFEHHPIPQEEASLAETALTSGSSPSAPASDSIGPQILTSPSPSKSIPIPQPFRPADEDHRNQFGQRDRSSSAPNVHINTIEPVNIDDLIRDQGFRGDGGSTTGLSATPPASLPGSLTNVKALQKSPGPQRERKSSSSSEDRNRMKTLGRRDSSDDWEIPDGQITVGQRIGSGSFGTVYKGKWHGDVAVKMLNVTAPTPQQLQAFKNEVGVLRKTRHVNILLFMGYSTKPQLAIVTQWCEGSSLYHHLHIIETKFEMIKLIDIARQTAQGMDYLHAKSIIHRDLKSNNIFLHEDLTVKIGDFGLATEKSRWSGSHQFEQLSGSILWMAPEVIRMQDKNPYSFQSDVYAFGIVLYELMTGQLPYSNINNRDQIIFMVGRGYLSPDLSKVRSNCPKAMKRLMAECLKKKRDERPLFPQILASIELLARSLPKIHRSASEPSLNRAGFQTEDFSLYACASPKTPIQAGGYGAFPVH
- ASSAY SETUP: read-out: b-Raf IC-50; AlphaScreen, 60 min pre-incubation, reaction 3 hours at room temperature
This section presents molecules with their documented pIC50 values.
Please report pIC50 as the negative decimal logarithm of the molar concentration, giving only the number.

Check out these entries, answers already filled in.
* Cc1ccc(NC(=O)c2cc(C3CC3)on2)cc1-c1cc(N2CCOCC2)nc(N2CC(O)C2)c1 | 8.95
* Cc1ccc(NC(=O)c2ccnc(C(C)(C)C#N)c2)cc1-c1nc(N2CCOCC2)c2sccc2n1 | 9.05
* CCn1cc(C(=O)Nc2cnc(C)c(-c3cc(NCCO)nc(N4CCOCC4)c3)c2)cc(C(F)(F)F)c1=O | 7.51
* Cc1ncc(NC(=O)c2ccnc(C(C)C)c2)cc1-c1cc(N2CCOCC2)nc(N2CC(O)C2)c1 | 8.19
* Cc1ncc(NC(=O)c2ccnc(C(C)(C)O)c2)cc1-c1cc(N2CCOCC2)c2nccn2n1 | 8.12

What measured pIC50 goes with `Cc1ccc(NC(=O)c2cnnc(C3CC3)c2)cc1-c1cc(NCCO)nc(N2CCOCC2)c1` ? 8.81

What measured pIC50 goes with `CCC(F)(F)c1cc(C(=O)Nc2cnc(C)c(-c3cc(N4CCOCC4)c(S(C)(=O)=O)nn3)c2)ccn1` ? 7.91

---

- ASSAY TARGET: b-Raf (V600E) (Homo sapiens (Human), UniProt P15056, V600E)
- ASSAY SETUP: read-out: b-Raf IC-50; AlphaScreen, 60 min pre-incubation, reaction 3 hours at room temperature
This section presents compounds with their documented pIC50 values.
Please report pIC50 as the negative decimal logarithm of the molar concentration, giving only the number.

- Cc1ncc(NC(=O)c2ccnc(C(C)C)c2)cc1-c1cc(N2CCOCC2)c2nccn2n1: 8.89
- Cc1ncc(NC(=O)c2cc(C(C)(C)F)ccn2)cc1-c1cnc(OCCO)c(N2CCOCC2)c1: 8.08
- Cc1ccc(NC(=O)c2ccnc(C(F)(F)F)c2)cc1-c1cc(N2CCOCC2)nc(NCCO)c1F: 8.40
- Cc1ncc(NC(=O)c2ccnc(C3CC3)c2)cc1-c1cc(NCCO)nc(N2CCOCC2)c1: 8.39
- Cc1ncc(NC(=O)c2cccc(-c3nnco3)c2)cc1-c1cc(N2CCOCC2)nc(N2CC(O)C2)c1: 7.46
- Cc1ncc(NC(=O)c2cc(C(C)(F)F)ccn2)cc1-c1cnc(OC(C)C)c(N2CCOCC2)c1: 8.53
- Cc1ncc(NC(=O)c2cc(C(F)(F)F)ccn2)cc1-c1cc(N2CCOCC2)c(OCC(F)F)nn1: 8.88

What measured pIC50 goes with `Cc1ccc(NC(=O)c2ccnc(C3CC3)c2)cc1-c1cc(OCCO)nc(N2CCOCC2)c1` ? 9.37

---

- ASSAY TARGET: b-Raf (V600E) (Homo sapiens (Human), UniProt P15056, V600E)
- ASSAY SETUP: read-out: b-Raf IC-50; AlphaScreen, 60 min pre-incubation, 3 hours reaction
IC50 strictly under 1 nM means Met; at 1 nM or over means Not met.

- CCOc1nnc(-c2cc(NC(=O)c3ccc(CO)c(C(F)(F)F)c3)cnc2C)cc1N1CCOCC1: Not met
- CCOc1nnc(-c2cc(NC(=O)c3ccnc(C(F)(F)F)c3)cnc2C)cc1N1CCOCC1: Not met
- COc1nnc(-c2cc(NC(=O)c3ccnc(C(C)(F)F)c3)ccc2C)cc1N1CCOCC1: Not met

Find out if reported IC50 for `Cc1ccc(NC(=O)c2ccnc(S(C)(=O)=O)c2)cc1-c1cc(N2CCOCC2)n2nccc2n1` is less than 1 nM Not met

Find out if reported IC50 for `Cc1ccc(NC(=O)c2ccnc(C(F)F)c2)cc1-c1cc(N2CCOCC2)c(OC(C)C)nn1` is less than 1 nM Met

Find out if reported IC50 for `Cc1ccc(NC(=O)c2ccnc(C(C)(F)F)c2)cc1-c1cc(N2CCOCC2)c(OC(C)C)nn1` is less than 1 nM Met

Find out if reported IC50 for `Cc1ccc(NC(=O)c2cccc(C(F)(F)F)c2)cc1-c1nc(N2CCOCC2)c2ncsc2n1` is less than 1 nM Met

Find out if reported IC50 for `Cc1ccc(NC(=O)c2cc(CN(C)C)cc(C(F)(F)F)c2)cc1-c1cc(N2CCOCC2)n(C)c(=O)c1` is less than 1 nM Not met

---

- ASSAY TARGET: b-Raf (V600E) (Homo sapiens (Human), UniProt P15056, V600E)
- MEASUREMENT DESCRIPTION: biochemical
IC50 strictly under 4 nM means 1 (yes); at 4 nM or over means 0 (no).

* Cc1ccc(NC(=O)c2ccnc(C(C)(F)F)c2)cc1-c1ccnc(N2CCOCC2)c1 [Example 1137] | 1 (yes)

Find out if reported IC50 for Cc1ccc(C(=O)Nc2ccc(CN)c(C(F)(F)F)c2)cc1-c1cc(N2CCOCC2)c(=O)n(C)c1 [Example 467] is less than 4 nM 0 (no)

Find out if reported IC50 for Cc1ccc(NC(=O)c2cccc(C(F)(F)F)c2)cc1-c1nc2c(c(N3CCOCC3)n1)CCNC2 [Example 834] is less than 4 nM 1 (yes)

Find out if reported IC50 for Cc1ccc(NC(=O)c2ccnc(C(C)(F)F)c2)cc1-c1cc(N2CCOCC2)n(C)c(=O)c1 [Example 471] is less than 4 nM 1 (yes)

Find out if reported IC50 for Cc1ccc(NC(=O)c2ccnc(C(C)(C)O)c2)cc1-c1cc2[nH]cnc2c(N2CCOCC2)n1 [Example 823] is less than 4 nM 0 (no)

Find out if reported IC50 for Cc1ccc(NC(=O)c2cc(C3CC3)nn2C)cc1-c1cc2[nH]cnc2c(N2CCOCC2)n1 [Example 818] is less than 4 nM 0 (no)

Find out if reported IC50 for Cc1ncc(NC(=O)c2cccc(C(F)(F)F)c2)cc1-c1cc(N2CCOCC2)nc(NC[C@@H](C)O)n1 [Example 743] is less than 4 nM 1 (yes)

---

- ASSAY TARGET: b-Raf (V600E) (Homo sapiens (Human), UniProt P15056, V600E)
- ASSAY SETUP: read-out: b-Raf IC-50; AlphaScreen, 60 min pre-incubation, 3 hours reaction
IC50 strictly under 2 nM means Met; at 2 nM or over means Not met.

Some entries whose results are on file:
- Cc1ccc(NC(=O)c2ccnc(C(C)(F)F)c2)cc1-c1cc(N2CCOCC2)c(OC2CCOCC2)nn1: Met
- CCNc1nc(-c2cc(NC(=O)c3ccnc(C(C)(C)O)c3)ccc2C)cc(N2CCOC[C@H]2C)n1: Not met
- CCOc1nnc(-c2cc(NC(=O)c3ccnc(C(F)(F)CC)c3)cnc2C)cc1N1CCOCC1: Not met

Find out if reported IC50 for `CCNc1nc(-c2cc(NC(=O)c3cccc(C(F)F)c3)cnc2C)cc(N2CCOCC2)n1` is less than 2 nM Met

Find out if reported IC50 for `Cc1ccc(NC(=O)c2cccc(C(F)F)c2)cc1-c1cc(N2CCOCC2)c2nccn2n1` is less than 2 nM Met

Find out if reported IC50 for `Cc1ncc(NC(=O)c2ccnc(S(C)(=O)=O)c2)cc1-c1cc(N2CCOCC2)n2nccc2n1` is less than 2 nM Not met

Find out if reported IC50 for `CCC(F)(F)c1cc(C(=O)Nc2ccc(C)c(-c3cc(N4CCOCC4)n(C)c(=O)c3)c2)ccn1` is less than 2 nM Met

Find out if reported IC50 for `Cc1ncc(NC(=O)c2cccc(C(F)(F)F)c2)cc1-c1cc(N2CCOCC2)nc(NC(C)(C)CO)n1` is less than 2 nM Met

Find out if reported IC50 for `Cc1ccc(NC(=O)c2ccnc(C(C)(C)F)c2)cc1-c1cc(N2CCOCC2)c(OC(C)C)nn1` is less than 2 nM Met

---

This section presents compounds with their documented pIC50 values.
- ASSAY TARGET: b-Raf (V600E) (Homo sapiens (Human), UniProt P15056, V600E)
- ASSAY SETUP: read-out: b-Raf IC-50; AlphaScreen, 60 min pre-incubation, reaction 3 hours at room temperature
Please report pIC50 as the negative decimal logarithm of the molar concentration, giving only the number.

* Cc1ccc(NC(=O)c2ccnc(C(C)(C)C#N)c2)cc1-c1cc(N2CCOCC2)nc(N2CC(C)(O)C2)c1 | 8.32

What is its pIC50 for b-Raf (V600E) (Homo sapiens (Human), UniProt P15056, V600E)? Entry: `Cc1ccc(NC(=O)c2ccnc(C(F)(F)F)c2)cc1-c1cc(N2CCOCC2)c(S(C)(=O)=O)nn1` 8.99

What is its pIC50 for b-Raf (V600E) (Homo sapiens (Human), UniProt P15056, V600E)? Entry: `Cc1ccc(NC(=O)c2cc(C(C)(F)F)ccn2)cc1-c1cc(N2CCOCC2)c(=O)n(C)c1` 8.63

What is its pIC50 for b-Raf (V600E) (Homo sapiens (Human), UniProt P15056, V600E)? Entry: `Cc1ccc(NC(=O)c2cnnc(C(F)(F)F)c2)cc1-c1cc(OCCO)nc(N2CCOCC2)c1` 9.24

What is its pIC50 for b-Raf (V600E) (Homo sapiens (Human), UniProt P15056, V600E)? Entry: `Cc1ncc(NC(=O)c2ccnc(C(C)(C)C#N)c2)cc1-c1cnc(OC(C)C)c(N2CCOCC2)c1` 8.14

What is its pIC50 for b-Raf (V600E) (Homo sapiens (Human), UniProt P15056, V600E)? Entry: `Cc1ccc(NC(=O)c2cnnc(C3CC3)c2)cc1-c1cc(N2CCOCC2)nc(N2CC(C)(O)C2)c1` 8.64

What is its pIC50 for b-Raf (V600E) (Homo sapiens (Human), UniProt P15056, V600E)? Entry: `Cc1ccc(NC(=O)c2ccnc(C(F)F)c2)cc1-c1cc(N2CCOCC2)nc(N2CCOCC2)c1` 9.19
